# Test system: HL-60(TB) leukemia
# procedure-summary: NCI tumour cell line growth inhibition, 48 h
property-label: TGI

The cases that follow already have their TGI on record.
molecule	experimental-target	property-label	value-reported
COCCn1c(Nc2ccc(C(=O)NO)cc2)nc2ccccc21	HL-60(TB) leukemia	TGI	> 100 µM
CC1=NN(c2ccccc2)C(=O)/C1=C1\SC(c2ccccc2)(c2ccccc2)c2ccccc21	HL-60(TB) leukemia	TGI	> 100 µM
CC(C)(C)c1ccc(O)c(C(O)c2ccccn2)c1 (configuration not stated)	HL-60(TB) leukemia	TGI	> 100 µM
O=C1O/C(=C(\Br)c2ccc([N+](=O)[O-])cc2)c2ccccc21	HL-60(TB) leukemia	TGI	> 67.1 µM
Fc1ccc(/C=C2\COCC3=C2NC(=S)NC3c2ccc(F)cc2)cc1 (configuration not stated)	HL-60(TB) leukemia	TGI	35.4 µM

Here are 4 molecules. What values of TGI were reported for them?
1. COc1ccc(-c2nc(-c3nc4cc(Cl)c(Cl)cc4[nH]3)c3ccccn23)cc1
2. COC1C(OC(=O)/C=C/C=C/C=C/C=C/C(=O)O)CCC2(CO2)C1C1(C)OC1CC=C(C)C (configuration not stated)
3. CS(=O)(=O)N(CCC#N)c1ccc(/C=C2\N=C(c3ccccc3Cl)OC2=O)cc1
4. COc1ccc(-c2nn3ncccc3c2-c2ccnc(Nc3ccc(F)c(F)c3)n2)cc1

1: > 100 µM; 2: 70.6 µM; 3: > 100 µM; 4: > 25 µM

Here are 8 molecules. What values of TGI were reported for them?
1. COc1cccc2c1C(=O)c1c(O)c3c(c(O)c1C2=O)C[C@@](O)(/C(C)=N/NC(=O)c1cccc([N+](=O)[O-])c1)C[C@@H]3OC1CC(N)C(O)C(C)O1 (some centres not stated)
2. CN(c1ccccc1)c1nc(=[N+](C)C)ss1
3. Cc1ccc(/C=C/C(=O)c2ccc(F)cc2)s1
4. CCO/C(O)=c1/s/c(=C2/SC(=S)N(c3ccc(C)cc3)C2=O)n(-c2ccccc2)c1=N
5. CCn1c(-c2nonc2N)nc2cnc(Oc3cccc(NC(=O)c4ccc(OCCN5CCOCC5)cc4)c3)cc21
6. CCOC(=O)c1sc2nc(=S)[nH]c(NC(N)=S)c2c1C
7. COc1ccc(C(O)C(c2ccc(OCc3ccccc3)cc2)c2ccc(OCc3ccccc3)cc2)cc1 (configuration not stated)
8. N#CSc1c[nH]c2ccc(/C=C/C(=O)/C=C(O)/C=C/c3ccc4[nH]cc(SC#N)c4c3)cc12

["0.923 µM", "> 100 µM", "7.22 µM", "> 100 µM", "> 25 µM", "> 100 µM", "> 100 µM", "4.34 µM"]

Here are 4 molecules. What values of TGI were reported for them?
1. C=CC(=O)N1CCN([C@@H](CC2CC2)c2ccc([C@H](C)Nc3ncc4c(n3)N(CC)C(=O)OC4)cc2)CC1
2. CN(N=O)C(=O)NC(CCCCNC(=O)OCc1ccccc1)C(=O)OCc1ccccc1 (configuration not stated)
3. Cc1cccc(-c2cc(=O)c3cccnc3[nH]2)c1
4. C[C@]12CC[C@H]3[C@@H](CCC4=CC(=O)CC[C@@]43C)[C@]1(O)CC[C@]2(O)C(=O)CO

1. 12.7 µM
2. 48.7 µM
3. 0.654 µM
4. > 100 µM

Report TGI for `N#C/C=C(/NC(=O)Nc1ccccc1)N1CCCC1` please.
> 100 µM
